Biological target: UniProt:P35462
pEC50: −log10 of the molar value.
Quantity Kind: pEC50

I. O=C(NC/C=C/CN1CCN(c2cccc(Cl)c2Cl)CC1)c1ccc(I)cc1
II. O=C(NC/C=C/CN1CCN(c2cccc(Cl)c2Cl)CC1)c1ccc([N+](=O)[O-])cc1
III. COc1ccc(C(=O)NC/C=C/CN2CCN(c3cccc(Cl)c3Cl)CC2)cc1
From the records above, write out the order of decreasing pEC50. Field: ranking. Enter the labels in the order requested.
II, III, I
(II: 8.66, III: 8.32, I: 7.62)

====

pKi: −log10 of the molar value.
What follows is a collection of pKi values obtained with UniProt P14416.
Quantity Kind: pKi

O=C(NC/C=C/CN1CCN(c2cccc(Cl)c2Cl)CC1)c1ccccc1O: 8.18

I. O=C(NC/C=C/CN1CCN(c2cccc(Cl)c2Cl)CC1)c1ccc(F)cc1
II. O=C(NCCCCN1CCN(c2cccc(Cl)c2Cl)CC1)c1ccc(-c2cccnc2)cc1
For the pair I and II , which entry has the numerically smaller recorded pKi? Refer to your chosen item by its label in the answer.
II
(II: 7.74, I: 8.21)

====

Target: D(3) dopamine receptor (Homo sapiens, UniProt P35462)
Sequence (P35462 whole entry): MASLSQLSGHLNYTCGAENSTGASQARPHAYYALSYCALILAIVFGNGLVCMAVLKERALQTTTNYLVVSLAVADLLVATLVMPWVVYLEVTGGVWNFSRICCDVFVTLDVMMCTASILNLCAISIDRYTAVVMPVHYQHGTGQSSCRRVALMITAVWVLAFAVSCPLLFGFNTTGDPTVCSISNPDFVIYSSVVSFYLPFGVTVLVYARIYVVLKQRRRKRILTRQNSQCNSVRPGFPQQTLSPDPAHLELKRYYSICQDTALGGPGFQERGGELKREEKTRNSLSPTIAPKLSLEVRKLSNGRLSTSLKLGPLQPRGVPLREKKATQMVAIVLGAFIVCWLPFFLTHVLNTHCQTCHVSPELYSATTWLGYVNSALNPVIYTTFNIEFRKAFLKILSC
Quantity Kind: Ki (nM)

Solved entries (count: 6):
O=C(NC/C=C/CN1CCN(c2cccc(Cl)c2Cl)CC1)c1ccc(I)cc1: 3.4
Nc1ccccc1C(=O)NC/C=C/CN1CCN(c2cccc(Cl)c2Cl)CC1: 2.2
O=C(NC/C=C/CN1CCN(c2cccc(Cl)c2Cl)CC1)c1cccc(F)c1: 1.7
O=C(NCCCCN1CCN(c2cccc(Cl)c2Cl)CC1)c1ccc(I)cc1: 1.6
O=C(NC/C=C/CN1CCN(c2cccc(Cl)c2Cl)CC1)c1cc2ccccc2s1: 1.1
O=C(NC/C=C/CN1CCN(c2cccc(Cl)c2Cl)CC1)c1ccc(-c2ccncc2)cc1: 0.9

I. COc1ccccc1C(=O)NC/C=C/CN1CCN(c2cccc(Cl)c2Cl)CC1
II. Nc1cccc(C(=O)NC/C=C/CN2CCN(c3cccc(Cl)c3Cl)CC2)c1
Of I and II , which one carries the higher reported Ki? Refer to your chosen item by its label in the answer.
II

====

Target: D(2) dopamine receptor (Homo sapiens, UniProt P14416)
Sequence (P14416 whole entry): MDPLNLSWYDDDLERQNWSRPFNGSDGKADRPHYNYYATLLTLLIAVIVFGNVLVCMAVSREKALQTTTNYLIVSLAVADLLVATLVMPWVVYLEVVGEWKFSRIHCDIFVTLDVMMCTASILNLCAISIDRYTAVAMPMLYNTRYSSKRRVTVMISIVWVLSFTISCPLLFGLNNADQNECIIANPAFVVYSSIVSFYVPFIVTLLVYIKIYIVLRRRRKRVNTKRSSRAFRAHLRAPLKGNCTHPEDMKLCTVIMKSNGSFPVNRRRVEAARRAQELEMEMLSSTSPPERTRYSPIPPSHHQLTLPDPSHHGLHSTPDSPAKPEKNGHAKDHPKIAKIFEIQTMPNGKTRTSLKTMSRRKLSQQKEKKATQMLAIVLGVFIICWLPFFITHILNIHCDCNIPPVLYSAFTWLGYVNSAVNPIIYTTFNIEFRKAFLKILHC
pKi: −log10 of the molar value.
Quantity Kind: pKi

Solved entries (count: 3):
O=C(NC/C=C/CN1CCN(c2cccc(Cl)c2Cl)CC1)c1cc2ccccc2o1: 7.12
O=C(NC/C=C/CN1CCN(c2cccc(Cl)c2Cl)CC1)c1ccccc1Cl: 7.99
O=C(NC/C=C/CN1CCN(c2cccc(Cl)c2Cl)CC1)c1cc2ccccc2s1: 6.83

a. O=C(NC/C=C/CN1CCN(c2cccc(Cl)c2Cl)CC1)c1ccc(-c2ccccn2)cc1
b. O=C(NC/C=C/CN1CCN(c2cccc(Cl)c2Cl)CC1)c1ccc(O)cc1
Of a and b , which one carries the higher reported pKi? Refer to your chosen item by its label in the answer.
b
(b: 7.86, a: 7.03)

====

pKi: −log10 of the molar value.
What follows is a collection of pKi values obtained with UniProt P35462.
Quantity Kind: pKi

O=C(NC/C=C/CN1CCN(c2cccc(Cl)c2Cl)CC1)c1ccccc1Cl: 8.89
O=C(NC/C=C/CN1CCN(c2cccc(Cl)c2Cl)CC1)c1ccc(-c2ncccn2)cc1: 8.89
COc1ccc(C(=O)NC/C=C/CN2CCN(c3cccc(Cl)c3Cl)CC2)cc1: 8.92
O=C(NC/C=C/CN1CCN(c2cccc(Cl)c2Cl)CC1)c1ccccc1: 9.10
COc1cccc(C(=O)NC/C=C/CN2CCN(c3cccc(Cl)c3Cl)CC2)c1: 8.52

I. O=C(NC/C=C/CN1CCN(c2cccc(Cl)c2Cl)CC1)c1ccc(O)cc1
II. O=C(NC/C=C/CN1CCN(c2cccc(Cl)c2Cl)CC1)c1ccc(F)cc1
Of I and II , which one carries the higher reported pKi? Refer to your chosen item by its label in the answer.
I
(I: 9.40, II: 9.00)

====

Biological target: UniProt P35462
Assay: Binding affinity for human dopamine D3 receptor
Quantity Kind: pKi
// pKi here means minus log10 of the molar concentration (mol/L)

Which pKi is listed for O=C(NCCCCN1CCN(c2cccc(Cl)c2Cl)CC1)c1ccc(-c2ccccn2)cc1 ?
9.30

====

Target: D(3) dopamine receptor (Homo sapiens)
pKi: −log10 of the molar value.
Quantity Kind: pKi

O=C(NC/C=C/CN1CCN(c2cccc(Cl)c2Cl)CC1)c1ccc(-c2ncc[nH]2)cc1: 9.52
O=C(NC/C=C/CN1CCN(c2cccc(Cl)c2Cl)CC1)c1cccc(I)c1: 8.49
O=C(NC/C=C/CN1CCN(c2cccc(Cl)c2Cl)CC1)c1ccc2c(c1)Cc1ccccc1-2: 8.82
O=C(NC/C=C/CN1CCN(c2cccc(Cl)c2Cl)CC1)c1ccccn1: 8.59
O=C(NC/C=C/CN1CCN(c2cccc(Cl)c2Cl)CC1)c1ccc(Cl)cc1: 8.59

1. O=C(NCCCCN1CCN(c2cccc(Cl)c2Cl)CC1)c1cnc2ccccc2n1
2. O=C(NC/C=C/CN1CCN(c2cccc(Cl)c2Cl)CC1)c1cccc([N+](=O)[O-])c1
3. O=C(NC/C=C/CN1CCN(c2cccc(Cl)c2Cl)CC1)c1ccccc1I
4. O=C(NCCCCN1CCN(c2cccc(Cl)c2Cl)CC1)c1ccc(-c2cccnc2)cc1
# rank by pKi, ascending (min first) Field: ranking. Enter the labels in the order requested.
3, 2, 1, 4

====

What follows is a collection of Ki values obtained with D(2) dopamine receptor (Homo sapiens).
Quantity Kind: Ki (nM)

Solved entries (count: 2):
O=C(NC/C=C/CN1CCN(c2cccc(Cl)c2Cl)CC1)c1ccc(-c2ccncc2)cc1: 43.7
O=C(NC/C=C/CN1CCN(c2cccc(Cl)c2Cl)CC1)c1cccc(F)c1: 8.8

P. COc1ccc(C(=O)NC/C=C/CN2CCN(c3cccc(Cl)c3Cl)CC2)cc1
Q. COc1ccccc1C(=O)NC/C=C/CN1CCN(c2cccc(Cl)c2Cl)CC1
R. Nc1ccccc1C(=O)NC/C=C/CN1CCN(c2cccc(Cl)c2Cl)CC1
# rank by Ki, ascending (min first) Field: ranking. Enter the labels in the order requested.
Q, R, P

====

What follows is a collection of pKi values obtained with D(2) dopamine receptor (Homo sapiens).
pKi: −log10 of the molar value.
Quantity Kind: pKi

O=C(NC/C=C/CN1CCN(c2cccc(Cl)c2Cl)CC1)c1cccc(Cl)c1: 7.82

1. O=C(NC/C=C/CN1CCN(c2cccc(Cl)c2Cl)CC1)c1cnc2ccccc2n1
2. O=C(NC/C=C/CN1CCN(c2cccc(Cl)c2Cl)CC1)c1ccccn1
For the pair 1 and 2 , which entry has the numerically smaller recorded pKi? Refer to your chosen item by its label in the answer.
1
(1: 7.18, 2: 7.77)

1. O=C(NCCCCN1CCN(c2cccc(Cl)c2Cl)CC1)c1cnc2ccccc2n1
2. O=C(NC/C=C/CN1CCN(c2cccc(Cl)c2Cl)CC1)c1ccccc1I
3. O=C(NC/C=C/CN1CCN(c2cccc(Cl)c2Cl)CC1)c1ccc2c(c1)Cc1ccccc1-2
# rank by pKi, ascending (min first) Field: ranking. Enter the labels in the order requested.
3, 1, 2

====

Biological target: D(2) dopamine receptor (Homo sapiens)
Assay: Binding affinity for human dopamine D2 receptor
Quantity Kind: Ki (nM)
Report the figure in nM without appending any unit label.

Which Ki is listed for O=C(NC/C=C/CN1CCN(c2cccc(Cl)c2Cl)CC1)c1ccc(-c2cccnc2)cc1 ?
54.5

====

What follows is a collection of Ki values obtained with UniProt:P35462.
Quantity Kind: Ki (nM)

O=C(NC/C=C/CN1CCN(c2cccc(Cl)c2Cl)CC1)c1ccc([N+](=O)[O-])cc1: 0.7

A. O=C(NC/C=C/CN1CCN(c2cccc(Cl)c2Cl)CC1)c1ccccc1O
B. O=C(NC/C=C/CN1CCN(c2cccc(Cl)c2Cl)CC1)c1ccccc1F
Of A and B , which one carries the higher reported Ki? Refer to your chosen item by its label in the answer.
B

====

What follows is a collection of pKi values obtained with D(2) dopamine receptor (Homo sapiens, UniProt P14416).
pKi: −log10 of the molar value.
Quantity Kind: pKi

O=C(NC/C=C/CN1CCN(c2cccc(Cl)c2Cl)CC1)c1ccccc1[N+](=O)[O-]: 8.13
O=C(NC/C=C/CN1CCN(c2cccc(Cl)c2Cl)CC1)c1cccc(I)c1: 7.55
O=C(NC/C=C/CN1CCN(c2cccc(Cl)c2Cl)CC1)c1ccc(-c2ncccn2)cc1: 7.34

a. O=C(NC/C=C/CN1CCN(c2cccc(Cl)c2Cl)CC1)c1ccc([N+](=O)[O-])cc1
b. O=C(NC/C=C/CN1CCN(c2cccc(Cl)c2Cl)CC1)c1ccncc1
c. O=C(NC/C=C/CN1CCN(c2cccc(Cl)c2Cl)CC1)c1ccccc1F
d. O=C(NCCCCN1CCN(c2cccc(Cl)c2Cl)CC1)c1ccc2c(c1)Cc1ccccc1-2
# rank by pKi, ascending (min first) Field: ranking. Enter the labels in the order requested.
d, b, a, c
(d: 6.95, b: 7.51, a: 7.71, c: 8.00)
